- Test system: Nucleic Acid
- assay notes: Evaluated for thermal denaturation at pH 4.9 against poly(A)-poly(dt synthetic DNA oligonucleotide
- Format: nucleic-acid assay
What ΔTm was measured for each of the following?
Numbers only.

Completed entries (count: 3):
- compound: "c1cnc(N2CCN(Cc3ccc(CN4CCN(c5ncccn5)CC4)cc3)CC2)nc1"
  ΔTm: 0
- compound: "N#CC1CCN(CCCN2CCC(C#N)CC2)CC1"
  ΔTm: 0
- compound: "OCC1CCCN(CCCN2CCCC(CO)C2)C1 (stereo unspecified)"
  ΔTm: 0

Field: ΔTm. Fill in for each record below.
1. CN1CCN(CCCN2CCN(C)CC2)CC1
2. c1cnc(N2CCN(Cc3cccc(CN4CCN(c5ncccn5)CC4)c3)CC2)nc1
3. C(CN1CCC(C2=NCCN2)CC1)CN1CCC(C2=NCCN2)CC1

Result block:
[0, 0, 5.6]

----------
- Test system: Nucleic Acid
- assay notes: Evaluated for thermal denaturation at pH 4.9 against poly(A)-poly(U) syntheticRNA oligonucleotide
- Type: nucleic-acid assay
Lab note: compare ΔTm against 1. Equal or greater, write t. Smaller, write f.

- compound: "C(CC1CCNCC1)CC1CCNCC1"
  qualitative label: "t"
- compound: "CN1CCN(CCCN2CCN(C)CC2)CC1"
  qualitative label: "t"
- compound: "C(CN1CCC(C2=NCCN2)CC1)CN1CCC(C2=NCCN2)CC1"
  qualitative label: "t"
- compound: "c1cnc(N2CCN(Cc3ccc(CN4CCN(c5ncccn5)CC4)cc3)CC2)nc1"
  qualitative label: "f"
- compound: "c1cnc(N2CCN(Cc3cccc(CN4CCN(c5ncccn5)CC4)c3)CC2)nc1"
  qualitative label: "f"

Alright, here's another compound for you.
Query block: Is the recorded value of ΔTm equal to or greater than 1 for this compound? C1CCN(CCN2CCN(CCN3CCCCC3)CC2)CC1
Result block: f

----------
- System: Nucleic Acid
- assay notes: Evaluated for thermal denaturation at pH 3.9 against poly(A)-poly(dt) synthetic DNA oligonucleotide
- Format: nucleic-acid assay
What ΔTm was measured for each of the following?
Numbers only.

- smi: "C1CCN(C2CCN(CCN3CCN(CCN4CCC(N5CCCCC5)CC4)CC3)CC2)CC1"
  ΔTm: 10.4

Field: ΔTm. Fill in for each record below.
1. C1CCN(C2CCN(CCCN3CCC(N4CCCCC4)CC3)CC2)CC1
2. c1ccc(CN2CCN(CCCN3CCN(Cc4ccccc4)CC3)CC2)cc1
3. C(CN1CCC(C2=NCCN2)CC1)CN1CCC(C2=NCCN2)CC1
4. c1cc(CN2CCN(Cc3ccc(CN4CCNCC4)cc3)CC2)ccc1CN1CCNCC1
5. c1cc(CN2CCC(C3=NCCN3)CC2)ccc1CN1CCC(C2=NCCN2)CC1
6. c1cc(CN2CCC(N3CCCCC3)CC2)ccc1CN1CCC(N2CCCCC2)CC1
7. CN1CCN(CCCN2CCN(C)CC2)CC1

Result block:
4.1
0.2
6.1
12
8.8
5.6
0

----------
- Tested on: Nucleic Acid
- assay notes: Evaluated for thermal denaturation at pH 4.9 against poly(A)-poly(U) syntheticRNA oligonucleotide
- Format: nucleic-acid assay
recorded metric: ΔTm
Answers are plain numbers.

Field: ΔTm. Fill in for each record below.
1. c1cc(CN2CCC(N3CCCCC3)CC2)ccc1CN1CCC(N2CCCCC2)CC1
2. C1CCN(C2CCN(CCCN3CCC(N4CCCCC4)CC3)CC2)CC1
3. c1cc(CN2CCC(C3=NCCN3)CC2)ccc1CN1CCC(C2=NCCN2)CC1

Result block:
1. 15.4
2. 20.7
3. 20.7
